Values from patent US11596639B2

Test system: H929 human cancer cell lines
Test: Cellular viability / proliferation (Cell TiterGlo, 72 h)
Assay type: cell-based
Settings: Homo sapiens, NCI-H929, 72 h, read-out: GI50 on cellular proliferation of H929 human cancer cell lines, H929 cells, 72 h, Cell TiterGlo, 10% FBS
Procedure: Cellular Viability of Human Tumor Cell Lines To evaluate compound effect on cellular proliferation, cells were plated at 1,000 cells/well in 96-well tissue culture plates in a total volume of 90 μL medium supplemented with 10% FBS (Sigma, Saint Louis, Mo.). […] Luminescence is measured on a BioTek Cytation 3. Luminescence values are imported into a template in XLFit (Guildford, Surrey, UK) that uses a four-parameter fit to generate an IC50 value for each compound dilution series on the plate.
Quantity name: GI50 (nM)
The response must be a number in nM with no trailing unit.

Cc1cc(OCCCc2c3n(c4c(-c5c(C)ncnc5C)c(Cl)ccc24)[C@H](C)CN(c2cn(C)c4ccc(-c5ncccn5)cc24)C3=O)cc(C)c1Cl    790
Cc1cc(OCCCc2c3n(c4c(-c5c(C)nn(C)c5C)c(Cl)ccc24)[C@H](C)CN(c2cn(C)c4ccc(-n5nccn5)cc24)C3=O)cc(C)c1Cl    1900
COCCOc1cc(N2C[C@@H](C)n3c(c(CCCOc4cc(C)c(Cl)c(C)c4)c4ccc(Cl)c(-c5c(C)nn(C)c5C)c43)C2=O)c2c(c1)c(C(=O)O)cn2Cc1ccccn1    340

[ask] What does the record list as GI50 for "Cc1nc(Cn2c(C(=O)O)cc3cccc(N4C[C@@H](C)n5c(c(CCCOc6cc(C)c(Cl)c(C)c6)c6ccc(Cl)c(-c7c(C)nn(C)c7C)c65)C4=O)c32)no1" ?
[reply] 930

----------
Molecular target: Mcl-1 (Homo sapiens (Human), UniProt Q07820)
Sequence (Q07820 172-327): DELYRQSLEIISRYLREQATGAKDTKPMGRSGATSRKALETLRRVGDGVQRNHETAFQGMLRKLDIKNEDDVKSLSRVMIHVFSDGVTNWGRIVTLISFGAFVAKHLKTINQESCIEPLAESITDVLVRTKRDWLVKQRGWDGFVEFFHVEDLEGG
Assay: TR-FRET binding assay, FITC-Bak peptide and MBP-tagged Mcl-1
Conditions: read-out: Ki for Inhibition of Mcl-1 by TR-FRET assay
Quantity name: Ki

Some compounds with recorded Ki:
Cc1cc(OCCCc2c3n(c4c(-c5c(C)ncnc5C)c(Cl)ccc24)[C@H](C)CN(c2cn(C)c4ccc(C(=O)O)nc24)C3=O)cc(C)c1Cl    < 0.2 nM
Cc1cc(OCCCc2c3n(c4c(-c5c(C)nn(C)c5C)c(Cl)ccc24)[C@H](C)CN(c2cc(CCN4CCN(C)CC4)cc4cc(C(=O)O)n(C)c24)C3=O)cc(C)c1Cl    < 0.2 nM

Pending compound:
[ask] I would be grateful if you could share the reported Ki for "Cc1cc(OCCCc2c3n(c4c(-c5c(C)nn(C)c5C)c(Cl)ccc24)[C@H](C)CN(c2cn(Cc4ccccn4)c4ccc(C(=O)O)cc24)C3=O)cc(C)c1Cl" .
[reply] < 0.2 nM

----------
Tested on: H929 human cancer cell lines
Test: Cellular viability / proliferation (Cell TiterGlo, 72 h)
Type: cell-based
Conditions: Homo sapiens, NCI-H929, 72 h, read-out: GI50 on cellular proliferation of H929 human cancer cell lines, H929 cells, 72 h, Cell TiterGlo, 10% FBS
Each entry below carries its reported GI50.
Supply the numeric figure in nM, leaving out any unit text.

Example cases with answers are listed next.
Cc1cc(OCCCc2c3n(c4c(-c5c(C)nn(C)c5C)c(Cl)ccc24)[C@H](C)CN(c2nn(C)c4c(C(=O)O)cccc24)C3=O)cc(C)c1Cl [Example 165]    1200
CC[C@@H]1Cn2c(c(CCCOc3cc(C)c(Cl)c(C)c3)c3ccc(Cl)c(-c4c(C)nn(C)c4C)c32)C(=O)N1c1cc(C(=O)O)c2c(ccn2C)c1 [Example 41]    1200
Cc1cc(OCCCc2c3n(c4c(-c5c(C)nn(C)c5C)c(Cl)ccc24)[C@H](C)CN(c2cc(OCCN4CCN(C)CC4)cc4cc(C(=O)O)n(C)c24)C3=O)cc(C)c1Cl [Example 453]    330
Cc1cc(OCCCc2c3n(c4c(-c5c(C)nn(C)c5C)c(Cl)ccc24)CCCN(c2cc(C(=O)O)c4c(Cl)cn(C)c4c2)C3=O)cc(C)c1Cl [Example 3]    6600

Let us examine a further case.
[ask] Return reported GI50; argument: Cc1cc(OCCCc2c3n(c4c(-c5c(C)nn(C)c5C)c(Cl)ccc24)[C@H](C)CN(c2ccc(Cl)c4c(C(=O)O)cn(C)c24)C3=O)cc(C)c1Cl [Example 435]
[reply] 570

----------
Attribute: GI50
System: H929 human cancer cell lines
Experiment: Cellular viability / proliferation (Cell TiterGlo, 72 h)
Assay type: cell-based
Settings: Homo sapiens, NCI-H929, 72 h, read-out: GI50 on cellular proliferation of H929 human cancer cell lines, H929 cells, 72 h, Cell TiterGlo, 10% FBS
Numeric answer only, unit nM assumed.

Examples with their reported GI50 follow.
COCCn1c(C(=O)O)cc2cc(OC)cc(N3C[C@@H](C)n4c(c(CCCOc5cc(C)c(Cl)c(C)c5)c5ccc(Cl)c(-c6c(C)nn(C)c6C)c54)C3=O)c21    280
Cc1cc(OCCCc2c3n(c4c(-c5c(C)nn(C)c5C)c(Cl)ccc24)[C@H](C)CN(c2cn(C)c4ccc(-c5nc6ccccn6n5)cc24)C3=O)cc(C)c1Cl    310

[ask] Requested read-out: GI50. Entry: "COc1cc(C(=O)O)cc(N2CCCn3c(c(CCCOc4cc(C)c(Cl)c(C)c4)c4ccc(Cl)c(-c5c(C)nn(C)c5C)c43)C2=O)c1OCCCO"
[reply] 8500

[ask] Queued: "Cc1cc(OCCCc2c3n(c4c(-c5c(C)nn(C)c5C)c(Cl)ccc24)[C@H](C)CN(c2cccc4c2C(=O)CC4)C3=O)cc(C)c1Cl"
[reply] 1800

[ask] Let us now turn to "Cc1cc(OCCCc2c3n(c4c(-c5c(C)ncnc5C)c(Cl)ccc24)CCCN(c2cc(C(=O)O)c4ccn(C)c4c2)C3=O)cc(C)c1Cl"
[reply] 2400

[ask] Request: "Cc1cc(OCCCc2c3n(c4c(-c5c(C)nn(C)c5C)c(Cl)ccc24)[C@@H](C)CN(c2cn(C)c4ccc(C(=O)O)cc24)C3=O)cc(C)c1Cl"
[reply] 3400

----------
Target: Mcl-1 (Homo sapiens (Human), UniProt Q07820)
Test: TR-FRET binding assay, FITC-Bak peptide and MBP-tagged Mcl-1
Conditions: read-out: Ki for Inhibition of Mcl-1 by TR-FRET assay
pKi: −log10 of the molar value.
Quantity name: pKi

Solved cases below.
COc1cc(N2C[C@@H](C)n3c(c(CCCOc4cc(C)c(Cl)c(C)c4)c4ccc(Cl)c(-c5c(C)ncnc5C)c43)C2=O)c2c(c1)cc(C(=O)O)n2Cc1cccc(C)n1 [Example 572]    > 9.70
CCOCCn1c(C(=O)O)cc2cc(C)cc(N3C[C@@H](C)n4c(c(CCCOc5cc(C)c(Cl)c(C)c5)c5ccc(Cl)c(-c6c(C)nn(C)c6C)c54)C3=O)c21 [Example 579]    > 9.70
Cc1cc(OCCCc2c3n(c4c(-c5c(C)nn(C)c5C)c(Cl)ccc24)[C@H](C)CN(c2cn(C)c4ncc(C(=O)O)nc24)C3=O)cc(C)c1Cl [Example 585]    > 9.70
Cc1ccnc(Cn2c(C(=O)O)cc3cc(OCCN(C)C)cc(N4C[C@@H](C)n5c(c(CCCOc6cc(C)c(Cl)c(C)c6)c6ccc(Cl)c(-c7c(C)ncnc7C)c65)C4=O)c32)c1 [Example 584]    > 9.70
Cc1cc(OCCCc2c3n(c4c(-c5c(C)nn(C)c5C)c(Cl)ccc24)[C@H](C)CN(c2cc(COCCN(C)C)cc4cc(C(=O)O)n(C)c24)C3=O)cc(C)c1Cl [Example 614]    > 9.70

[ask] Any idea what pKi came out for COCCN(C)c1cc(N2C[C@@H](C)n3c(c(CCCOc4cc(C)c(Cl)c(C)c4)c4ccc(Cl)c(-c5c(C)nn(C)c5C)c43)C2=O)c2c(c1)cc(C(=O)O)n2C [Example 682] on Mcl-1 (Homo sapiens (Human), UniProt Q07820)?
[reply] > 9.70

[ask] Cc1cc(OCCCc2c3n(c4c(-c5c(C)nn(C)c5C)c(Cl)ccc24)[C@H](C)CN(c2cn(C)c4ccc(-n5nccn5)nc24)C3=O)cc(C)c1Cl [Example 664] , same question.
[reply] 9.19

[ask] Entry Cc1cc(N2C[C@@H](C)n3c(c(CCCOc4cc(C)c(Cl)c(C)c4)c4ccc(Cl)c(-c5c(C)nn(C)c5C)c43)C2=O)c2c(c1)cc(C(=O)O)n2Cc1cccc(N2CCOCC2)n1 [Example 499] please
[reply] 9.68

[ask] What would you report for COCCOc1cc(N2C[C@@H](C)n3c(c(CCCOc4cc(C)c(Cl)c(C)c4)c4ccc(Cl)c(-c5c(C)nn(C)c5C)c43)C2=O)c2c(c1)c(C(=O)O)cn2C [Example 654] ?
[reply] 9.47

[ask] Also need COCCOc1cc(N2C[C@@H](C)n3c(c(CCCOc4cc(C)c(Cl)c(C)c4)c4ccc(Cl)c(-c5c(C)ncnc5C)c43)C2=O)c2c(c1)cc(C(=O)O)n2Cc1cccc(C)n1 [Example 571] , thanks.
[reply] > 9.70

[ask] For Cc1cc(OCCCc2c3n(c4c(-c5c(C)nn(C)c5C)c(Cl)ccc24)[C@H](C)CN(c2cc(OC4CCN(C)CC4)cc4cc(C(=O)O)n(C)c24)C3=O)cc(C)c1Cl [Example 519] then?
[reply] 9.34
